# Assay info: PK study in male ICR mice, intravenous and oral administration, plasma concentration
# Assay type: in vivo
# Condition details: mouse, plasma, PO (20 mg/kg), read-out: MRT(0-∞)
Measured metric: MRT inf (h)
Write it as a number; the unit h goes unstated.

[in] Give the value of MRT inf reported for the following: COc1ccc(F)c(S(=O)(=O)Nc2ccc(-c3ccc4c(N)n[nH]c4c3)nc2)c1
[out] 24.1

###

# Target desc: UniProt:Q12809
# Sequence (Q12809 whole entry): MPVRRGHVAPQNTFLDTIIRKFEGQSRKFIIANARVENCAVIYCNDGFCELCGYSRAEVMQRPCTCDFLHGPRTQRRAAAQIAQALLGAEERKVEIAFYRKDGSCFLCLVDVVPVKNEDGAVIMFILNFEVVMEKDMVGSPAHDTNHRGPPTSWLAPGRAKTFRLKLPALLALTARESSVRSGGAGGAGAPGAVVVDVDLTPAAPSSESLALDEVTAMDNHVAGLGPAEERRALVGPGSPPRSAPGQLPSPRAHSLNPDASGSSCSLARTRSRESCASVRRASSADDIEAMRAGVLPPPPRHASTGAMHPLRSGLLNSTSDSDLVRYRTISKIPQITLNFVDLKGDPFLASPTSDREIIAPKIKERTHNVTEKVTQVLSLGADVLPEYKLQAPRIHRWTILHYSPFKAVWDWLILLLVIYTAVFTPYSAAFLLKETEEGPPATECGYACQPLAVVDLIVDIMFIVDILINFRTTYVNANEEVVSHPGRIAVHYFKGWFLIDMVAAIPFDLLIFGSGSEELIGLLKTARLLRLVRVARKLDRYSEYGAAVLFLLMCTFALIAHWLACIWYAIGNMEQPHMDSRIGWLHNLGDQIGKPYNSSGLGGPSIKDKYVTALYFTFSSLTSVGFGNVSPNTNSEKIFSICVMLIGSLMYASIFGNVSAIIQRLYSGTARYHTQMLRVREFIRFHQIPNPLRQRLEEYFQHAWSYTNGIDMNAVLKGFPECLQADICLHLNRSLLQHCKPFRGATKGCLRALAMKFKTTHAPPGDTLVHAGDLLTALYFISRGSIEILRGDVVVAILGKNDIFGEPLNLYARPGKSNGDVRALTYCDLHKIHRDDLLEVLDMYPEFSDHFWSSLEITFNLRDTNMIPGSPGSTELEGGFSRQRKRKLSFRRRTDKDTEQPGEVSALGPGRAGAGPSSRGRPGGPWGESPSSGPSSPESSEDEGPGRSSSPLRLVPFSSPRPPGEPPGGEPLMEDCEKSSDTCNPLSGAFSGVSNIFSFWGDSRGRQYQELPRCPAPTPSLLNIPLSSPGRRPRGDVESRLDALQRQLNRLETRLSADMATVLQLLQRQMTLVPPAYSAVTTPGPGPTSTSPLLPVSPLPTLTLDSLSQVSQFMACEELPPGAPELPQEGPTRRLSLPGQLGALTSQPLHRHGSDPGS
# Assay info: Qpatch hERG assay (automated patch clamp, whole-cell tail current)
# Condition details: CHO cell line stably expressing hERG channels; highest test concentration 30 μM
pIC50: −log10 of the molar value.
Measured metric: pIC50

The cases that follow already have their pIC50 on record.
{"Test smiles": "COc1ccc(F)c(S(=O)(=O)Nc2ccc(-c3cc(C)c4c(N)n[nH]c4n3)cc2)c1", "Measured metric": "pIC50", "Result": "< 4.52"}
{"Test smiles": "COc1ccc(F)c(S(=O)(=O)Nc2ccc(-c3cc(OC)c4c(N)n[nH]c4c3)cc2)c1", "Measured metric": "pIC50", "Result": "< 4.52"}
{"Test smiles": "COc1ccc(F)c(S(=O)(=O)Nc2ccc(-c3cc4[nH]nc(N)c4c(C)n3)cc2)c1", "Measured metric": "pIC50", "Result": 4.91}

Now look at this entry.
[in] Give the value of pIC50 reported for the following: COc1ccc(F)c(S(=O)(=O)Nc2ccc(-c3ccc4c(N)n[nH]c4n3)cc2)c1
[out] < 4.52

###

Listed next: entries and their corresponding IC50.
# Target desc: Sgk2 (Homo sapiens, UniProt Q9HBY8)
# Sequence (Q9HBY8 1-367): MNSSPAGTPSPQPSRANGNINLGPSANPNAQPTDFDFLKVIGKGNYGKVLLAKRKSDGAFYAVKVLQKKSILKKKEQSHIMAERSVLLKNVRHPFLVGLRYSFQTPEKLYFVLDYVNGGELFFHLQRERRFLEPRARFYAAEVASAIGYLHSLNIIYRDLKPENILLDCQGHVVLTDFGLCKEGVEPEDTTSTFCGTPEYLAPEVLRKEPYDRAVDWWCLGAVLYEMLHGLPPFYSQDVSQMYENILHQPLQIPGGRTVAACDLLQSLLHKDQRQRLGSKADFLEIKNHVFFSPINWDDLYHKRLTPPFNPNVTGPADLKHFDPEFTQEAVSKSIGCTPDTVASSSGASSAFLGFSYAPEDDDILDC
# Assay info: Enzyme based assay for SGK2 (biotinylated Akt Substrates-2 peptide, Eu3+ Cryptate/XL665 detection)
# Format: biochemical
# Condition details: 1 mM ATP; read-out: Sgk2 (1 mM ATP)
Write it as a number; the unit µM goes unstated.

{"Molecule": "COc1ccc(F)c(S(=O)(=O)Nc2ccc(-c3cc(OCCN(C)C)c4c(N)n[nH]c4c3)cc2)c1", "IC50 / µM": 0.104}

[in] Give the value of IC50 reported for the following: COc1ccc(F)c(S(=O)(=O)Nc2ccc(-c3cc(OC4CCOC4)c4c(N)n[nH]c4n3)cc2)c1 (stereo not drawn)
[out] 0.0076

[in] Give the value of IC50 reported for the following: COc1ccc(F)c(S(=O)(=O)Nc2ccc(-c3cc(C)c4c(N)n[nH]c4c3)nc2)c1
[out] 0.0079

[in] Give the value of IC50 reported for the following: COc1ccc(F)c(S(=O)(=O)Nc2ccc(-c3cc(OC)c4c(N)n[nH]c4c3)cc2)c1 [drawing 108]
[out] 0.0089

[in] Give the value of IC50 reported for the following: COCCOc1cc(-c2ccc(NS(=O)(=O)c3cc(OC)ccc3F)cn2)cc2[nH]nc(N)c12
[out] 0.0332

[in] Give the value of IC50 reported for the following: COc1ccc(F)c(S(=O)(=O)Nc2ccc(-c3cc4[nH]ncc4c(NCC4CNCCO4)n3)cc2)c1 (stereo not drawn)
[out] 0.0035

[in] Give the value of IC50 reported for the following: COc1ccc(F)c(S(=O)(=O)Nc2ccc(-c3cc4[nH]nc(N)c4cn3)cc2)c1
[out] 0.0541

[in] Give the value of IC50 reported for the following: COc1ccc(F)c(S(=O)(=O)Nc2ccc(-c3cc(O[C@@H]4CCOC4)c4c(N)n[nH]c4c3)nc2)c1
[out] 0.036

[in] Give the value of IC50 reported for the following: COc1ccc(F)c(S(=O)(=O)Nc2ccc(-c3ccc4cn[nH]c4c3)nc2)c1
[out] 0.267

###

# Target desc: Sgk1 (Homo sapiens)
# Sequence (O00141 1-431): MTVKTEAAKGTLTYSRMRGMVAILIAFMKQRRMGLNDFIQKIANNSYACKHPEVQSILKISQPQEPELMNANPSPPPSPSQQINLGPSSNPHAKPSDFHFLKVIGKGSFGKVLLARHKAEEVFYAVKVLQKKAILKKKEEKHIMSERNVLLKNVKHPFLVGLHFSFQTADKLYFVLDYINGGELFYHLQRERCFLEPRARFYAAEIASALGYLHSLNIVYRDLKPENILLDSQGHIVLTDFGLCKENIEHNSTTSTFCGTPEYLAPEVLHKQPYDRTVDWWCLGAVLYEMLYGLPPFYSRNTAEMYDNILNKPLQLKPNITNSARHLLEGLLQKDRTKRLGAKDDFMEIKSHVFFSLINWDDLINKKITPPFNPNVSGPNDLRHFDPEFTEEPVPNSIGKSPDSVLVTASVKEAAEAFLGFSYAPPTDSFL
# Assay info: Enzyme based assay for SGK1 (biotinylated Akt Substrates-2 peptide, Eu3+ Cryptate/XL665 detection)
# Format: biochemical
# Condition details: 1 mM ATP; read-out: Sgk1 (1 mM ATP)
Listed next: entries and their corresponding pIC50.
Units for pIC50: none; it is -log10 of a concentration expressed in mol/L.

The cases that follow already have their pIC50 on record.
{"Compound": "COc1ccc(F)c(S(=O)(=O)Nc2ccc(-c3ccc4c(N)n[nH]c4c3)cc2)c1", "Target desc": "Sgk1 (Homo sapiens)", "pIC50": 7.45}
{"Compound": "COc1ccc(F)c(S(=O)(=O)Nc2ccc(-c3cc(CCC4CNCCO4)c4cn[nH]c4c3)cc2)c1 (stereo not drawn)", "Target desc": "Sgk1 (Homo sapiens)", "pIC50": 7.94}
{"Compound": "O=S(=O)(Nc1ccc(-c2ccc3cn[nH]c3c2)cc1)c1cc(Cl)ccc1F", "Target desc": "Sgk1 (Homo sapiens)", "pIC50": 6.45}

Now look at this entry.
[in] With Sgk1 (Homo sapiens) as the test system, provide measured pIC50 for this compound: COc1ccc(F)c(S(=O)(=O)Nc2ccc(-c3cc(NCC4CNCCO4)c4cn[nH]c4c3)cc2)c1 (stereo not drawn)
[out] 7.91

###

# Target desc: Sgk1 (Homo sapiens, UniProt O00141)
# Assay info: Enzyme based assay for SGK1 (biotinylated Akt Substrates-2 peptide, Eu3+ Cryptate/XL665 detection)
# Format: biochemical
# Condition details: 50 μM ATP; read-out: Sgk1 (50 μM ATP)
Ranges used to classify IC50: band 1 (below 0.005 µM), band 2 (0.005 µM to below 0.02 µM), band 3 (0.02 µM or more)

{"Compound": "O=S(=O)(Nc1ccc(-c2ccc3cn[nH]c3n2)cc1)c1cc(Cl)ccc1F", "Target desc": "Sgk1 (Homo sapiens, UniProt O00141)", "Category": "band 3"}
{"Compound": "COc1ccc(F)c(S(=O)(=O)Nc2ccc(-c3ccc4c(N)n[nH]c4c3)cc2)c1", "Target desc": "Sgk1 (Homo sapiens, UniProt O00141)", "Category": "band 2"}
{"Compound": "COc1ccc(F)c(S(=O)(=O)Nc2ccc(-c3cc4[nH]ncc4c(OCC4CNCCO4)n3)cc2)c1 (stereo not shown) [drawing 105]", "Target desc": "Sgk1 (Homo sapiens, UniProt O00141)", "Category": "band 1"}
{"Compound": "COCCOc1cc(-c2ccc(NS(=O)(=O)c3cc(OC)ccc3F)cn2)cc2[nH]nc(N)c12", "Target desc": "Sgk1 (Homo sapiens, UniProt O00141)", "Category": "band 3"}

--- query ---
[in] Band for COc1ccc(F)c(S(=O)(=O)Nc2ccc(-c3cc(C)c4c(N)n[nH]c4c3)nc2)c1 ?
[out] band 2

###

# Target desc: Sgk2 (Homo sapiens, UniProt Q9HBY8)
# Assay info: Enzyme based assay for SGK2 (biotinylated Akt Substrates-2 peptide, Eu3+ Cryptate/XL665 detection)
# Type: biochemical
# Condition details: 1 mM ATP; read-out: Sgk2 (1 mM ATP)
Listed next: entries and their corresponding pIC50.
Units for pIC50: none; it is -log10 of a concentration expressed in mol/L.

The cases that follow already have their pIC50 on record.
{"Compound": "COc1ccc(F)c(S(=O)(=O)Nc2ccc(-c3ccc4c(N)n[nH]c4c3)nc2)c1 [drawing 151]", "Target desc": "Sgk2 (Homo sapiens, UniProt Q9HBY8)", "Quantitative result": 7.68}
{"Compound": "COc1ccc(Cl)c(S(=O)(=O)Nc2ccc(-c3cc4[nH]ncc4c(OCC4CNCCO4)n3)cc2)c1 (stereo not drawn)", "Target desc": "Sgk2 (Homo sapiens, UniProt Q9HBY8)", "Quantitative result": 7.80}
{"Compound": "COc1ccc(F)c(S(=O)(=O)Nc2ccc(-c3ccc4c(N)n[nH]c4n3)cc2)c1 [drawing 140]", "Target desc": "Sgk2 (Homo sapiens, UniProt Q9HBY8)", "Quantitative result": 8.19}
{"Compound": "COc1ccc(F)c(S(=O)(=O)Nc2ccc(-c3cc4[nH]nc(N)c4c(C)n3)cc2)c1 [drawing 110]", "Target desc": "Sgk2 (Homo sapiens, UniProt Q9HBY8)", "Quantitative result": 8.28}
{"Compound": "COc1ccc(F)c(S(=O)(=O)Nc2ccc(-c3cc(OCC(C)(C)O)c4c(N)n[nH]c4c3)cc2)c1", "Target desc": "Sgk2 (Homo sapiens, UniProt Q9HBY8)", "Quantitative result": 7.41}
{"Compound": "COc1ccc(F)c(S(=O)(=O)Nc2ccc(-c3cc(CCC4CNCCO4)c4cn[nH]c4c3)cc2)c1 (stereo not drawn)", "Target desc": "Sgk2 (Homo sapiens, UniProt Q9HBY8)", "Quantitative result": 8.09}
{"Compound": "COc1ccc(F)c(S(=O)(=O)Nc2ccc(-c3cc(C)c4c(N)n[nH]c4c3)cc2)c1", "Target desc": "Sgk2 (Homo sapiens, UniProt Q9HBY8)", "Quantitative result": 7.15}
{"Compound": "COc1ccc(F)c(S(=O)(=O)Nc2ccc(-c3ccc4cn[nH]c4n3)cc2)c1", "Target desc": "Sgk2 (Homo sapiens, UniProt Q9HBY8)", "Quantitative result": 7.18}
{"Compound": "COCCOc1cc(-c2ccc(NS(=O)(=O)c3cc(OC)ccc3F)cc2)nc2[nH]nc(N)c12", "Target desc": "Sgk2 (Homo sapiens, UniProt Q9HBY8)", "Quantitative result": 7.16}
{"Compound": "Nc1n[nH]c2cc(-c3ccc(NS(=O)(=O)c4cc(Cl)ccc4F)cc3)ccc12", "Target desc": "Sgk2 (Homo sapiens, UniProt Q9HBY8)", "Quantitative result": 7.17}

[in] Give the value of pIC50 reported for the following: COc1ccc(F)c(S(=O)(=O)Nc2ccc(-c3cc(C)c4c(N)n[nH]c4n3)cc2)c1 [drawing 111]
[out] 8.43

[in] Give the value of pIC50 reported for the following: COc1ccc(F)c(S(=O)(=O)Nc2ccc(-c3cc(OCCN(C)C)c4c(N)n[nH]c4n3)cc2)c1
[out] 7.40

[in] Give the value of pIC50 reported for the following: COc1ccc(F)c(S(=O)(=O)Nc2ccc(-c3cc(OCC4CNCCO4)c4c(N)n[nH]c4c3)cc2)c1 (stereo not drawn)
[out] 8.42

[in] Give the value of pIC50 reported for the following: COc1ccc(F)c(S(=O)(=O)Nc2ccc(-c3cc(OC)c4c(N)n[nH]c4c3)nc2)c1
[out] 8.19

[in] Give the value of pIC50 reported for the following: COc1ccc(F)c(S(=O)(=O)Nc2ccc(-c3cc(OCCO)c4c(N)n[nH]c4c3)cc2)c1
[out] 8.21

[in] Give the value of pIC50 reported for the following: O=S(=O)(Nc1ccc(-c2ccc3cn[nH]c3c2)cc1)c1cc(Cl)ccc1F
[out] 6.18

[in] Give the value of pIC50 reported for the following: COCCOc1cc(-c2ccc(NS(=O)(=O)c3cc(OC)ccc3F)cc2)cc2[nH]nc(N)c12
[out] 7.67

[in] Give the value of pIC50 reported for the following: COc1ccc(F)c(S(=O)(=O)Nc2ccc(-c3cc(OCC4CNCCO4)c4cn[nH]c4n3)cc2)c1 (stereo not drawn)
[out] 8.01
